system: Fibroblast; assay: Incucyte cell viability with human fibroblast; type: toxicity, cell-based; conditions: 24 h, 10 µM, compound concentration 10 uM, replicate number 2; note: unitless GR value; below 1 slowed growth and below 0 cell loss
Criterion: Growth Rate meeting or surpassing 0.9. Met: Y. Not met: N.

Compound: Oc1cc2c(cc1O)CN(C(=S)NCCc1ccc(Cl)cc1)CCC2 [CAPSAZEPINE]
Group label: N

Compound: CC(C)n1nc(-c2cnc(N)c(OC(F)(F)F)c2)cc1[C@H]1[C@@H]2CN(C3COC3)C[C@@H]21
Group label: Y

Compound: COc1ccc(-c2cc3c(C)nc(N)nc3n([C@H]3CC[C@H](OCCO)CC3)c2=O)cn1
Group label: N

Compound: N[C@@H]1CCCN(c2c(/C=C3\SC(=O)NC3=O)cccc2-c2ccccc2)C1
Group label: N

Compound: CCOC(=O)CS(=O)(=O)c1ccc([C@@H](CO)NC(=O)c2cc3c(Cl)c(Cl)c(C)cc3n2C)cc1
Group label: N

Compound: CN(C)C(=O)Cn1cc(-c2ccc(-c3nnc4ccccn34)cc2)cn1
Group label: Y

--- query ---
*Q* Hi team, for CC(C)(O)C(=O)N1CCN(c2ccc(C(F)(F)F)c(C3=C(c4c[nH]c5ccccc45)C(=O)NC3=O)c2)CC1 , is the recorded Growth Rate at or above 0.9?
*A* N

----------
tested on: HEK-293T; assay: Incucyte cell viability with HEK293T; assay type: toxicity, cell-based; details: human, 6 h, 10 µM, compound concentration 10 uM, replicate number 1; note: unitless GR value; below 1 slowed growth and below 0 cell loss
Criterion: Growth Rate meeting or surpassing -0.7. Met: yes. Not met: no.

Known results for compounds:
Compound: CN(C(=O)CCOCCOCCOCCOCCNc1cccc2c1C(=O)N(C1CCC(=O)NC1=O)C2=O)[C@H]1CC[C@@]2(C)[C@@H](CC[C@@H]3[C@@H]2CC[C@]2(C)[C@@H](c4ccc5ccncc5c4)CC[C@@H]32)C1 (some centres not stated)
Target of assay: HEK-293T
Group label: yes
--
Compound: CN(CCCCCCC1=C(c2cc(F)cc(F)c2)CCCc2cc(O)ccc21)CCCCS(=O)(=O)CCCC(F)(F)F
Target of assay: HEK-293T
Group label: no
--
Compound: Cc1cc(O)c(-c2ccc([C@@H](C)CN(C)C)cc2)c2c1[nH]c(=O)c1sccc12
Target of assay: HEK-293T
Group label: no
--
Compound: CCOC(=O)C1=C[C@]2(CC)CCCN3CCc4c(n1c1ccccc41)[C@@H]32 [VINPOCETINE]
Target of assay: HEK-293T
Group label: yes
--
Compound: C[C@@H](Oc1cc(-n2cnc3ccc(OC4CCN(C)CC4)cc32)sc1C(N)=O)c1ccccc1Cl [GSK-579289A]
Target of assay: HEK-293T
Group label: yes

*Q* Hi team, for CC(C)(C#Cc1ccc(NC(=O)COc2ccccc2C(=O)c2ccccc2)c(Cl)c1)C(=O)O [BI 2439] , is the recorded Growth Rate at or above -0.7?
*A* yes

----------
tested on: HEK-293T; assay: Incucyte cell viability with HEK293T; assay type: toxicity, cell-based; conditions: human, 24 h, 10 µM, compound concentration 10 uM, replicate number 1; note: unitless GR value; below 1 slowed growth and below 0 cell loss
Label MET when Growth Rate < 0.2; otherwise NOT MET.

Known results for compounds:
Compound: COP(=O)(CCC(N)C(=O)O)Oc1cccc(CC(=O)O)c1 (centres undefined)
Target of assay: HEK-293T
Group label: NOT MET
//
Compound: CN(C)CCCN1c2ccccc2Sc2ccc(Cl)cc21.Cl [CHLORPROMAZINE HYDROCHLORIDE]
Target of assay: HEK-293T
Group label: MET
//
Compound: CCCCNc1ncc2c(-c3ccc(CN4CCN(C)CC4)cc3)cn([C@H]3CC[C@H](O)CC3)c2n1
Target of assay: HEK-293T
Group label: MET
//
Compound: O=C(O)C[C@H]1CC[C@H](c2ccc(NC(=O)c3nnc(Nc4ccc(F)c(F)c4)o3)cc2)CC1
Target of assay: HEK-293T
Group label: NOT MET
//
Compound: CC(C)(C)c1ccc(NC(=O)N2CCN(c3ncccc3Cl)CC2)cc1
Target of assay: HEK-293T
Group label: MET

--- query ---
*Q* Hi there! Is Growth Rate for O=C1NC(Nc2ccccc2)=N/C1=C\c1ccc2c(c1)OCO2 below 0.2, do you know?
*A* NOT MET
